test system: HEK293T-Rex ERSE-FLuc; assay: maximal ERSE-FLuc activation from dose-response fit, relative to thapsigargin (% of thapsigargin); higher = stronger activation; details: 18 h
The entries below come with measured maximal ERSE-FLuc activation values attached.
measurement-kind: maximal ERSE-FLuc activation

INSERT INTO assay_data (molecule, measurement_kind, reported_result) VALUES
  ('O=C(N/N=C/c1ccc(Cl)cc1Cl)c1ccc(O)c(O)c1', 'maximal ERSE-FLuc activation', 32.6),
  ('C/C(=N\NC(=O)c1n[nH]c2c1CCCC2)c1ccc(Br)cc1', 'maximal ERSE-FLuc activation', 32.5),
  ('COc1ccccc1-c1nnc(Nc2nc3c(OC)cccc3s2)o1', 'maximal ERSE-FLuc activation', 32.7),
  ('Nc1ccc2nc(/C=C/c3ccccc3)[nH]c2c1', 'maximal ERSE-FLuc activation', 34.4),
  ('COc1ccc(C2C=C3Oc4ccccc4N=C3NN2)cc1 (configuration not stated)', 'maximal ERSE-FLuc activation', 27),
  ('Nc1ccccc1NC(=O)c1ccc(C(F)(F)F)cc1', 'maximal ERSE-FLuc activation', 73.1),
  ('COc1ccc(C(=O)Nc2nnc(-c3cccs3)s2)cc1', 'maximal ERSE-FLuc activation', 18.8),
  ('CCN1C(=O)/C(=C\c2ccc(O)cc2O)SC1=S', 'maximal ERSE-FLuc activation', 30.9),
  ('O=C(CCCN1CCC2(CC1)C(=O)N(Cc1cccc(F)c1)CN2c1ccccc1)c1ccc(F)cc1', 'maximal ERSE-FLuc activation', 187),
  ('O=C(c1ccccc1)c1c(O)ccc2c(C(=O)c3ccccc3)c(O)ccc12', 'maximal ERSE-FLuc activation', 32.5),
  ('COC(=O)c1ccc(C(=O)Nc2ccccc2N)cc1', 'maximal ERSE-FLuc activation', 91.1),
  ('Cc1ccc(O)c(-c2cc(-c3cccs3)[nH]n2)c1', 'maximal ERSE-FLuc activation', 131),
  ('Cc1cc(C)nc(/N=C(\N)Nc2ccc(OCc3ccc(Cl)cc3)cc2)n1', 'maximal ERSE-FLuc activation', 47.3),
  ('Oc1ccc(/C=N/Nc2cccc3cccnc23)cc1O', 'maximal ERSE-FLuc activation', 30.7),
  ('Cc1ccc(O)c(NC(=O)c2cc(-c3ccc(O)cc3)on2)c1', 'maximal ERSE-FLuc activation', 58.9),
  ('Nc1ccc2nc(-c3ccccn3)[nH]c2c1', 'maximal ERSE-FLuc activation', 16.8),
  ('CCCCNC(=O)c1cc(-c2ccc(F)cc2)on1', 'maximal ERSE-FLuc activation', 68.7),
  ('Oc1ccc(-c2cnc3c(Nc4ccc5[nH]ccc5c4)nccn23)cc1', 'maximal ERSE-FLuc activation', 21.4),
  ('Oc1ccc(-c2csc(-c3cccnc3)n2)cc1O', 'maximal ERSE-FLuc activation', 71.5),
  ('Cn1c(-c2cccc(Cl)c2)cnc1NC(=O)c1ccccc1', 'maximal ERSE-FLuc activation', 23.6),
  ('COc1cc2ccccc2cc1C(=O)N/N=C/c1cccs1', 'maximal ERSE-FLuc activation', 21.5),
  ('COc1ccc(N(C(=O)c2ccccc2)S(=O)(=O)c2cc(OC)ccc2OC)cc1', 'maximal ERSE-FLuc activation', 125),
  ('OCCNc1nc(Nc2ccc(Cl)c(Cl)c2)nc2ccccc12', 'maximal ERSE-FLuc activation', 144),
  ('Cc1ccccc1NC(=O)c1sc2nc(N)c(C#N)c(-c3ccc(C(C)C)cc3)c2c1N', 'maximal ERSE-FLuc activation', 169),
  ('Cc1ccc(O)c(NC(=O)c2cc(-c3cccs3)on2)c1', 'maximal ERSE-FLuc activation', 126),
  ('CCCCNNC(=O)c1ccc(Br)cc1', 'maximal ERSE-FLuc activation', 95.4),
  ('O=[N+]([O-])c1ccccc1N/N=C/c1ccc(O)c(O)c1', 'maximal ERSE-FLuc activation', 38),
  ('N#Cc1c(NC(=O)c2ccc(Br)cc2)sc2c1CCCC2', 'maximal ERSE-FLuc activation', 17.3),
  ('CN1C(=O)/C(=C\c2ccc(O)c(O)c2)SC1=S', 'maximal ERSE-FLuc activation', 28),
  ('COc1ccc(Nc2nccn3c(-c4ccsc4)cnc23)cn1', 'maximal ERSE-FLuc activation', 23.1),
  ('CC(=O)N1CCc2c([nH]c3ccccc23)C12CCN(CCCOc1ccccc1)CC2', 'maximal ERSE-FLuc activation', 151),
  ('N#Cc1c(NC(=O)c2ccc3ncsc3c2)sc2c1CCC2', 'maximal ERSE-FLuc activation', 22.2),
  ('Nc1ccc2nc(-c3ccc(Cl)cc3)[nH]c2c1', 'maximal ERSE-FLuc activation', 68.5),
  ('COc1ccc(/C=C2\SC(=O)NC2=Nc2ccc(C)cc2)c(OC)c1', 'maximal ERSE-FLuc activation', 18.2),
  ('CNc1ccc2oc(C[C@H]3O[C@@]4(CC[C@H]3C)O[C@H]([C@H](C)C(=O)c3ccc[nH]3)[C@H](C)C[C@H]4C)nc2c1C(=O)O', 'maximal ERSE-FLuc activation', 56.9),
  ('CCOc1ccc(NC(=O)c2ccc3c(c2)OCO3)c([N+](=O)[O-])c1', 'maximal ERSE-FLuc activation', 14.7),
  ('CC(C)CNC(=O)c1cc(-c2ccc(F)cc2)no1', 'maximal ERSE-FLuc activation', 20.8),
  ('O=C(Nc1ccc(O)cc1)c1ccc2ccccc2c1', 'maximal ERSE-FLuc activation', 31.4),
  ('O=c1/c(=C/c2ccc(O)c(O)c2)sc2nc3ccccc3n12', 'maximal ERSE-FLuc activation', 59.2),
  ('CCOc1ccc(/C=C(\C#N)c2[nH]nc(N)c2C#N)cc1OCC', 'maximal ERSE-FLuc activation', 59.8),
  ('CC(C)c1ccc(/C=N\NC(=O)c2ccccc2)cc1', 'maximal ERSE-FLuc activation', 19.3),
  ('Cc1ccc2nc(/C(C#N)=C/c3ccc(O)cc3)[nH]c2c1', 'maximal ERSE-FLuc activation', 35.3),
  ('COc1ccc(/C=C(\C#N)c2nc3ccccc3n2C)cc1', 'maximal ERSE-FLuc activation', 32.1),
  ('O=C(N/N=C/c1cccc2ccccc12)c1ccc2c(c1)OCO2', 'maximal ERSE-FLuc activation', 25.3),
  ('COc1cccc(/C=N/NC(=O)c2n[nH]c3c2CCCC3)c1', 'maximal ERSE-FLuc activation', 29.6),
  ('O=C(N/N=C/c1cccc(O)c1O)c1ccccc1I', 'maximal ERSE-FLuc activation', 39.5),
  ('O=[N+]([O-])c1ccccc1NC(=S)N/N=C/c1ccc(O)c(O)c1', 'maximal ERSE-FLuc activation', 21.3);
